# experimental-target: AGT-Ma (Homo sapiens, UniProt P21549, P319L)
# experiment-summary: quenching of intrinsic fluorescence of apoenzyme
property-label: Kd (nM)
Return type: number; implicit unit nM.

Please look at this compound and report its Kd: Cc1ncc(COP(=O)(O)O)c(C=O)c1O
190

---

# experimental-target: AGT-Mi (Homo sapiens, UniProt P21549, G161C/I340M/P11L)
# experiment-summary: quenching of intrinsic fluorescence of apoenzyme
property-label: Kd (nM)
Respond with the bare value in nM.

Note Kd for the molecule shown: Cc1ncc(COP(=O)(O)O)c(C=O)c1O [PLP]
560

---

# experimental-target: AGT-Ma (Homo sapiens, UniProt P21549, S218L)
# experiment-summary: CD signal at […] nm titration of apoenzyme
property-label: Kd (µM)
Supply the numeric figure in µM, leaving out any unit text.

Complete the entry with Kd for Cc1ncc(COP(=O)(O)O)c(C=O)c1O
24.2

---

# experimental-target: AGT-Ma (Homo sapiens, UniProt P21549, D183N)
# Sequence (P21549 1-392 D183N): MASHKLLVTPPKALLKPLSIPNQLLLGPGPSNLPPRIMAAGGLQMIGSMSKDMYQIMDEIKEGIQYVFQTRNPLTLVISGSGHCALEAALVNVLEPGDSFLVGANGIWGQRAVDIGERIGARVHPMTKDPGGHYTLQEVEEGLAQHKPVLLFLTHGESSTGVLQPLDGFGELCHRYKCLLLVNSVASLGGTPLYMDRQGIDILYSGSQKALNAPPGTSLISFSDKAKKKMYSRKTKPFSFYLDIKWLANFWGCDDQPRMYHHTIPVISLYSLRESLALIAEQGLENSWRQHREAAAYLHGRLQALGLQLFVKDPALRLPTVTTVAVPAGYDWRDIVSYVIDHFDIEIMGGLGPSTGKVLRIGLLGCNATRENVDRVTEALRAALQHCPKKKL
# experiment-summary: CD signal at […] nm titration of apoenzyme
property-label: Kd (nM)
Give a bare numeral; the unit nM is implied.

Read the entry Cc1ncc(COP(=O)(O)O)c(C=O)c1O [PLP] and write its reported Kd.
2100

---

# experimental-target: AGT-Ma (Homo sapiens, UniProt P21549, S158L)
# Sequence (P21549 1-392 S158L): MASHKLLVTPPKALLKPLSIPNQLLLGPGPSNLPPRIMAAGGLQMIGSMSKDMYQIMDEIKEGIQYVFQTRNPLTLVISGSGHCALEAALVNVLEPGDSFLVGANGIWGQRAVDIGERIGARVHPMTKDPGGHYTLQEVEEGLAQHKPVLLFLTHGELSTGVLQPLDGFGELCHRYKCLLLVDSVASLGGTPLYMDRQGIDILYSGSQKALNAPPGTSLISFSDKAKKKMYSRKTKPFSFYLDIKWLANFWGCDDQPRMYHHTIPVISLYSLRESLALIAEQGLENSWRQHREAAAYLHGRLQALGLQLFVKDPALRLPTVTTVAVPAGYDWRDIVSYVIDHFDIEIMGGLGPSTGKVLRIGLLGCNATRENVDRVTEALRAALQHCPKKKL
# experiment-summary: CD signal at […] nm titration of apoenzyme
property-label: Kd

Could you please provide reported Kd for Cc1ncc(COP(=O)(O)O)c(C=O)c1O ? Thanks!
272 µM
